# Tested on: Streptococcus faecium ATCC 8043
# ASSAY INFO: In vitro MIC, Agar Well Diffusion Method
# Format: cell-based
# DETAILS: Enterococcus faecium, ATCC8043, Culture Streptococcus faecium ATCC 8043
Where a name gives a salt, the structure may show the parent alone.
VALUE KIND: MIC

[[record]]
compound = "CC(=O)SCC1(C)SC2C(NC(=O)Cc3ccccc3)C(=O)N2C1C(=O)O (stereo not shown) [Compound G, monosodium salt]"
measurement = "0.98 µg/mL"

[[record]]
compound = "CC(=O)Oc1ccc(C(=O)OCC2(C)SC3C(NC(=O)Cc4ccccc4)C(=O)N3C2C(=O)O)cc1OC(C)=O (stereo not shown) [Compound H, monosodium salt]"
measurement = "7.8 µg/mL"

[[record]]
compound = "CC1(CN=[N+]=[N-])SC2C(NC(=O)Cc3ccccc3)C(=O)N2C1C(=O)O (stereo not shown) [Compound D, monosodium salt]"
measurement = "7.8 µg/mL"

[[record]]
compound = "CON=C(C(=O)NC1C(=O)N2C1SC(C)(CSc1nnnn1C)C2C(=O)O)c1csc(N)n1 (stereo not shown) [Compound C, monosodium salt]"
measurement = "125 µg/mL"

[[record]]
compound = "CC1(C[n+]2ccccc2)SC2C(NC(=O)Cc3ccccc3)C(=O)N2C1C(=O)[O-] (stereo not shown)"
measurement = "125 µg/mL"

[[record]]
compound = "CCN1CCN(C(=O)NC(C(=O)NC2C(=O)N3C2SC(C)(CSc2nnnn2C)C3C(=O)O)c2ccccc2)C(=O)C1=O (stereo not shown) [Compound A, monosodium salt sesquihydrate]"
measurement = "31.3 µg/mL"

[[record]]
compound = "Cn1nnnc1SCC1(C)SC2C(NC(=O)Cc3ccccc3)C(=O)N2C1C(=O)O (stereo not shown) [Compound B, monosodium salt]"
measurement = "7.8 µg/mL"


---

# Test system: Staphylococcus aureus 3037B
# ASSAY INFO: In vitro MIC, Agar Well Diffusion Method
# Assay type: cell-based
# DETAILS: Culture Staphylococcus aureus 3037B
Structures can show the parent of a compound that is named as a salt.
VALUE KIND: MIC (mg/L)

[[record]]
molecule = "Cn1nnnc1SCC1(C)SC2C(NC(=O)Cc3ccccc3)C(=O)N2C1C(=O)O (stereo not shown) [Compound B, monosodium salt]"
target_or_system = "Staphylococcus aureus 3037B"
measurement = 125

[[record]]
molecule = "CON=C(C(=O)NC1C(=O)N2C1SC(C)(CSc1nnnn1C)C2C(=O)O)c1csc(N)n1 (stereo not shown) [Compound C, monosodium salt]"
target_or_system = "Staphylococcus aureus 3037B"
measurement = 250

[[record]]
molecule = "CCN1CCN(C(=O)NC(C(=O)NC2C(=O)N3C2SC(C)(CSc2nnnn2C)C3C(=O)O)c2ccccc2)C(=O)C1=O (stereo not shown) [Compound A, monosodium salt sesquihydrate]"
target_or_system = "Staphylococcus aureus 3037B"
measurement = 500

[[record]]
molecule = "CC1(CN=[N+]=[N-])SC2C(NC(=O)Cc3ccccc3)C(=O)N2C1C(=O)O (stereo not shown) [Compound D, monosodium salt]"
target_or_system = "Staphylococcus aureus 3037B"
measurement = 125

[[record]]
molecule = "CC(=O)SCC1(C)SC2C(NC(=O)Cc3ccccc3)C(=O)N2C1C(=O)O (stereo not shown) [Compound G, monosodium salt]"
target_or_system = "Staphylococcus aureus 3037B"
measurement = 250

[[record]]
molecule = "CC1(C[n+]2ccccc2)SC2C(NC(=O)Cc3ccccc3)C(=O)N2C1C(=O)[O-] (stereo not shown)"
target_or_system = "Staphylococcus aureus 3037B"
measurement = 62.5

[[record]]
molecule = "CC(=O)Oc1ccc(C(=O)OCC2(C)SC3C(NC(=O)Cc4ccccc4)C(=O)N3C2C(=O)O)cc1OC(C)=O (stereo not shown) [Compound H, monosodium salt]"
target_or_system = "Staphylococcus aureus 3037B"
measurement = 125

